Entry source: patent US20260274955A1

tested on: anti-CD28 scFv (SEQ ID NO: 35); assay: Kinetic binding by bio-layer interferometry (Octet RED96): anti-CD28 scFv to peptides; set-up: species or system human; settings: BLI Octet RED96; biotinylated peptide loaded on streptavidin sensor; anti-CD28 scFv 100-12.5 nM; 1:1 binding model
Sequence (as listed by the source): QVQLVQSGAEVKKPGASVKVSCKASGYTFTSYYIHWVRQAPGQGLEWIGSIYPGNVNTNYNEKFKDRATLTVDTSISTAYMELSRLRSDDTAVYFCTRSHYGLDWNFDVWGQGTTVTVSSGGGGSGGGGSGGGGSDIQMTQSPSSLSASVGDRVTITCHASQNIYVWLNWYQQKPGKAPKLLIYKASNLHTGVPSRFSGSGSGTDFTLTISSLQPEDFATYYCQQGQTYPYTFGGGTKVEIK
// values below are reported kdis
measure_name: kdis (s⁻¹)

>  <sequence_content>
MDWCPRDLWVHCFA [Peptide-1]

>  <numeric_readout>
0.00154

$$$$
>  <sequence_content>
MDWCPRDMWSVCFS [Peptide-149]

>  <numeric_readout>
0.00812

$$$$
>  <sequence_content>
MDWCPRDLWDLCFA [Peptide-143]

>  <numeric_readout>
0.00351

$$$$

###

system: anti-CD28 scFv (SEQ ID NO: 35); assay: Kinetic binding by bio-layer interferometry (Octet RED96): anti-CD28 scFv to peptides; set-up: species or system human; conditions: BLI Octet RED96; biotinylated peptide loaded on streptavidin sensor; anti-CD28 scFv 100-12.5 nM; 1:1 binding model
Given measured kon, output Met if it is greater than or equal to 40000 M⁻¹ s⁻¹ and Not met if not.

>  <sequence_content>
MDWCPRDMWSVCFS [Peptide-149]

>  <system_tested>
anti-CD28 scFv (SEQ ID NO: 35)

>  <answer_label>
Not met

$$$$
>  <sequence_content>
MDWCPRDLWVHCFA [Peptide-1]

>  <system_tested>
anti-CD28 scFv (SEQ ID NO: 35)

>  <answer_label>
Not met

$$$$
>  <sequence_content>
MDWCPRHMWNYCFA [Peptide-151]

>  <system_tested>
anti-CD28 scFv (SEQ ID NO: 35)

>  <answer_label>
Met

$$$$
>  <sequence_content>
MDWCPRDLWHLCFS [Peptide-145]

>  <system_tested>
anti-CD28 scFv (SEQ ID NO: 35)

>  <answer_label>
Met

$$$$
>  <sequence_content>
MDWCPLYLWNECFN [Peptide-142]

>  <system_tested>
anti-CD28 scFv (SEQ ID NO: 35)

>  <answer_label>
Not met

$$$$
>  <sequence_content>
MDWCPIHLWHVCFN [Peptide-138]

>  <system_tested>
anti-CD28 scFv (SEQ ID NO: 35)

>  <answer_label>
Met

$$$$
